# assay-protocol: Pharmacokinetic parameters for Moxifloxacin hydrochloride following single oral or intravenous administration of 400 mg Moxifloxacin to healthy or patient male and/or female
# Format: ADME, organism-based
# Design: dose 400 mg, route iv, route oral
# particulars: human, in vivo, 400 mg; dosed compound id 1, dosed compound name MOXIFLOXACIN, regimen Single dose, tissue Plasma
property: AUC (ng·h/mL)
Kindly provide the numeric value in ng·h/mL only, without the unit symbol.

Exercise: Value lookup for AUC; key = COc1c(N2C[C@@H]3CCCN[C@@H]3C2)c(F)cc2c(=O)c(C(=O)O)cn(C3CC3)c12.Cl [MOXIFLOXACIN HYDROCHLORIDE]
Solution: 36100

* * *

# assay-protocol: Pharmacokinetic parameters for Moxifloxacin hydrochloride following multiple oral administration of 400 mg Moxifloxacin to male Japanese or Caucasian healthy or patient male and/or female
# Format: ADME, organism-based
# Design: dose 400 mg, route iv, route oral
# particulars: human, in vivo, 400 mg, dosed compound id 1, dosed compound name MOXIFLOXACIN, gender young male and female, regimen Multiple dose, tissue Plasma, read-out: Cmax
property: Cmax (ng/mL)
Kindly provide the numeric value in ng/mL only, without the unit symbol.

Exercise: Value lookup for Cmax; key = COc1c(N2C[C@@H]3CCCN[C@@H]3C2)c(F)cc2c(=O)c(C(=O)O)cn(C3CC3)c12.Cl [MOXIFLOXACIN HYDROCHLORIDE]
Solution: 4500

* * *

# assay-protocol: Pharmacokinetic parameters for Moxifloxacin hydrochloride following multiple oral administration of 400 mg Moxifloxacin to male Japanese or Caucasian healthy or patient male and/or female
# Assay type: ADME, organism-based
# Set-up: dose 400 mg, route iv, route oral
# particulars: human, in vivo, 400 mg, dosed compound id 1, dosed compound name MOXIFLOXACIN, regimen Multiple dose, tissue Plasma, read-out: Cmax ss
property: Cmax (ng/mL)
Kindly provide the numeric value in ng/mL only, without the unit symbol.

Exercise: Value lookup for Cmax; key = COc1c(N2C[C@@H]3CCCN[C@@H]3C2)c(F)cc2c(=O)c(C(=O)O)cn(C3CC3)c12.Cl [MOXIFLOXACIN HYDROCHLORIDE]
Solution: 4100

* * *

# assay-protocol: Pharmacokinetic parameters for Moxifloxacin hydrochloride following oral administration of Moxifloxacin.
# Type: ADME, organism-based
# particulars: human, in vivo, dosed compound id 1, dosed compound name MOXIFLOXACIN, tissue Plasma
property: bioavailability (%)
Kindly provide the numeric value in % only, without the unit symbol.

Exercise: Value lookup for bioavailability; key = COc1c(N2C[C@@H]3CCCN[C@@H]3C2)c(F)cc2c(=O)c(C(=O)O)cn(C3CC3)c12.Cl [MOXIFLOXACIN HYDROCHLORIDE]
Solution: 90

* * *

# assay-protocol: Pharmacokinetic parameters for Moxifloxacin hydrochloride following multiple oral administration of 400 mg Moxifloxacin to male Japanese or Caucasian healthy or patient male and/or female
# Assay type: ADME, organism-based
# Parameters: dose 400 mg, route iv, route oral
# particulars: human, in vivo, 400 mg, dosed compound id 1, dosed compound name MOXIFLOXACIN, regimen Multiple dose, tissue Plasma, read-out: AUC(0-24)
property: AUC (ng·h/mL)
Kindly provide the numeric value in ng·h/mL only, without the unit symbol.

Exercise: Value lookup for AUC; key = COc1c(N2C[C@@H]3CCCN[C@@H]3C2)c(F)cc2c(=O)c(C(=O)O)cn(C3CC3)c12.Cl [MOXIFLOXACIN HYDROCHLORIDE]
Solution: 47000

* * *

# assay-protocol: Pharmacokinetic parameters for Moxifloxacin hydrochloride following single oral or intravenous administration of 400 mg Moxifloxacin to healthy or patient male and/or female
# Type: ADME, organism-based
# Design: dose 400 mg, route iv, route oral
# particulars: human, in vivo, po, 400 mg; dosed compound id 1, dosed compound name MOXIFLOXACIN, regimen Single dose, tissue Plasma
property: Cmax (ng/mL)
Kindly provide the numeric value in ng/mL only, without the unit symbol.

Exercise: Value lookup for Cmax; key = COc1c(N2C[C@@H]3CCCN[C@@H]3C2)c(F)cc2c(=O)c(C(=O)O)cn(C3CC3)c12.Cl [MOXIFLOXACIN HYDROCHLORIDE]
Solution: 3100
